# Test system: Bacillus subtilis
# ASSAY NAME: Antibacterial activity against erythromycin-susceptible Bacillus subtilis ATCC 9372 after 24 hrs by tube-dilution method
# Assay type: functional
# CONDITION PARAMETERS: ATCC 9372, 24 h
Reported MIC by item:
ENDPOINT LABEL: MIC (µg/mL)

CC[C@H]1OC(=O)[C@H](C)[C@@H](O[C@H]2C[C@@](C)(OC)[C@@H](O)[C@H](C)O2)[C@H](C)[C@@H](O[C@@H]2O[C@H](C)C[C@H](N(C)C)[C@H]2O)[C@](C)(O)C[C@@H](C)CN(C)[C@H](C)[C@@H](O)[C@]1(C)O [AZITHROMYCIN] = 0.25
CC[C@H]1OC(=O)[C@H](C)[C@@H](OC(=O)Cc2cccnc2)[C@H](C)[C@@H](O[C@@H]2O[C@H](C)C[C@H](N(C)C)[C@H]2O)[C@](C)(OC)C[C@@H](C)C(=O)[C@H](C)[C@@H](OC(=O)NCCNC(=O)c2ccc(C3CCCCC3)cc2)[C@]1(C)O = 4
CC[C@H]1OC(=O)[C@H](C)C(=O)[C@H](C)[C@@H](O[C@@H]2O[C@H](C)C[C@H](N(C)C)[C@H]2O)[C@](C)(OC)C[C@@H](C)C(=O)/C(C)=C/[C@]1(C)O = 128
CC[C@H]1OC(=O)[C@H](C)C(=O)[C@H](C)[C@@H](O[C@@H]2O[C@H](C)C[C@H](N(C)C)[C@H]2O)[C@](C)(OC)C[C@@H](C)C(=O)[C@H](C)[C@@H](OC(=O)NCCNC(=O)C#Cc2ccc(C)cc2)[C@]1(C)O = 1

====

Reported MIC by item:
# Test system: Pseudomonas aeruginosa
# ASSAY NAME: Antibacterial activity against penicillin-susceptible Pseudomonas aeruginosa ATCC 27853 incubated for 24 hrs by […]
# Type: functional
# CONDITION PARAMETERS: ATCC 27853, 24 h
ENDPOINT LABEL: MIC

CC[C@H]1OC(=O)[C@H](C)C(=O)[C@H](C)[C@@H](O[C@@H]2O[C@H](C)C[C@H](N(C)C)[C@H]2O)[C@](C)(OC)C[C@@H](C)C(=O)[C@H](C)[C@@H](OC(=O)NCCNC(=O)C#Cc2ccccc2)[C@]1(C)O = > 128 µg/mL
CC[C@H]1OC(=O)[C@H](C)[C@@H](OC(=O)Cc2cccnc2)[C@H](C)[C@@H](O[C@@H]2O[C@H](C)C[C@H](N(C)C)[C@H]2O)[C@](C)(OC)C[C@@H](C)C(=O)[C@H](C)[C@@H](OC(=O)NCCNC(=O)c2cc([N+](=O)[O-])cc([N+](=O)[O-])c2)[C@]1(C)O = 64 µg/mL
CC[C@H]1OC(=O)[C@H](C)C(=O)[C@H](C)[C@@H](O[C@@H]2O[C@H](C)C[C@H](N(C)C)[C@H]2O)[C@](C)(OC)C[C@@H](C)C(=O)[C@H](C)[C@@H](OC(=O)NCCNC(=O)C#Cc2ccc(Br)cc2)[C@]1(C)O = > 128 µg/mL
CC[C@H]1OC(=O)[C@H](C)C(=O)[C@H](C)[C@@H](O[C@@H]2O[C@H](C)C[C@H](N(C)C)[C@H]2O)[C@](C)(OC)C[C@@H](C)C(=O)[C@H](C)[C@@H](OC(=O)NCCNC(=O)C#Cc2ccc(C)cc2)[C@]1(C)O = 128 µg/mL

====

Reported MIC by item:
# System: Streptococcus pneumoniae
# ASSAY NAME: Antibacterial activity against erythromycin-resistant Streptococcus pneumoniae A22072 harboring mefA gene after 24 hrs by […]
# Format: functional
# CONDITION PARAMETERS: A22072, 24 h
ENDPOINT LABEL: MIC (µg/mL)

CC[C@H]1OC(=O)[C@H](C)C(=O)[C@H](C)[C@@H](O[C@@H]2O[C@H](C)C[C@H](N(C)C)[C@H]2O)[C@](C)(OC)C[C@@H](C)C(=O)[C@H](C)[C@@H](OC(=O)NCCNC(=O)C#Cc2ccc(Cl)cc2Cl)[C@]1(C)O = 2
CC[C@H]1OC(=O)[C@H](C)C(=O)[C@H](C)[C@@H](O[C@@H]2O[C@H](C)C[C@H](N(C)C)[C@H]2O)[C@](C)(OC)C[C@@H](C)C(=O)[C@H](C)[C@@H](OC(=O)NCCNC(=O)C#Cc2ccccc2)[C@]1(C)O = 4
CC[C@H]1OC(=O)[C@H](C)[C@@H](OC(=O)Cc2cccnc2)[C@H](C)[C@@H](O[C@@H]2O[C@H](C)C[C@H](N(C)C)[C@H]2O)[C@](C)(OC)C[C@@H](C)C(=O)[C@H](C)[C@@H](OC(=O)NCCNC(=O)C#Cc2ccc(C)cc2)[C@]1(C)O = 1
CC[C@H]1OC(=O)[C@H](C)C(=O)[C@H](C)[C@@H](O[C@@H]2O[C@H](C)C[C@H](N(C)C)[C@H]2O)[C@](C)(OC)C[C@@H](C)C(=O)[C@H](C)[C@@H](OC(=O)NCCNC(=O)C#Cc2ccc(F)cc2)[C@]1(C)O = 2

====

# Test system: Staphylococcus aureus
# ASSAY NAME: Antibacterial activity against erythromycin-susceptible Staphylococcus aureus ATCC 25923 after 24 hrs by […]
# Format: functional
# CONDITION PARAMETERS: ATCC 25923, 24 h
Reported MIC by item:
ENDPOINT LABEL: MIC (µg/mL)

CC[C@H]1OC(=O)[C@H](C)[C@@H](OC(=O)Cc2cccnc2)[C@H](C)[C@@H](O[C@@H]2O[C@H](C)C[C@H](N(C)C)[C@H]2O)[C@](C)(OC)C[C@@H](C)C(=O)[C@H](C)[C@@H](OC(=O)NCCNC(=O)c2ccc([N+](=O)[O-])cc2)[C@]1(C)O = 1
CC[C@H]1OC(=O)[C@H](C)[C@@H](OC(=O)Cc2cccnc2)[C@H](C)[C@@H](O[C@@H]2O[C@H](C)C[C@H](N(C)C)[C@H]2O)[C@](C)(OC)C[C@@H](C)C(=O)[C@H](C)[C@@H](OC(=O)NCCNC(=O)c2ccc([N+](=O)[O-])cc2N)[C@]1(C)O = 1
CC[C@H]1OC(=O)[C@H](C)[C@@H](OC(=O)Cc2cccnc2)[C@H](C)[C@@H](O[C@@H]2O[C@H](C)C[C@H](N(C)C)[C@H]2O)[C@](C)(OC)C[C@@H](C)C(=O)[C@H](C)[C@@H](OC(=O)NCCNC(=O)c2ccc(C3CCCCC3)cc2)[C@]1(C)O = 2
